Assay: Pharmacokinetic test in rats
Format: in vivo
Conditions: rat; SD rats, male, oral gavage, 10 mg/kg, plasma
Description: SD rats were taken as test animals. Example 4, Example 15, and Comparative Example HRO761 were given by gavage. The drug concentrations in rat plasma at different time points were determined by LC-MS/MS to investigate the pharmacokinetic characteristics of Example 4, Example 15, and Comparative Example HRO761 in rats. […] The contents of Example 4, Example 15, and Comparative Example HRO761 in rat plasma after oral administration were determined by LC-MS/MS. […]
A collection of molecules and their measured Cmax

Below: 2 molecules and their reported Cmax.
>>> print(df.to_string())
                                   molecule  recorded_measurement
0  CCc1c(N2CCN(C(=O)c3ncnc(C)c3O)CC2)c(=O)c2nn(C3=CCOCC3)nc2n1CC(=O)Nc1cc(F)c(C(F)(F)F)cc1Cl            9020 ng/mL
1  CCc1c(N2CCN(C(=O)c3ncnc(C)c3O)CC2)c(=O)n2nc(C3=CCOCC3)nc2n1CC(=O)Nc1ccc(C(F)(F)F)cc1Cl [HRO761, reference compound]            6960 ng/mL

Turning to the following molecule.
Look up Cmax for this molecule: "CCc1c(N2CCN(C(=O)c3ncnc(C)c3O)CC2)c(=O)c2nn(C3=CCOCC3)nc2n1CC(=O)Nc1ccc(C(F)(F)F)cc1Cl" 19200 ng/mL

* * *

Entries and their IC50 values follow.
Target: WRN enzyme (Homo sapiens, UniProt Q14191)
Construct: host or cells: eukaryotic cells (not further specified)
Sequence (Q14191 whole entry): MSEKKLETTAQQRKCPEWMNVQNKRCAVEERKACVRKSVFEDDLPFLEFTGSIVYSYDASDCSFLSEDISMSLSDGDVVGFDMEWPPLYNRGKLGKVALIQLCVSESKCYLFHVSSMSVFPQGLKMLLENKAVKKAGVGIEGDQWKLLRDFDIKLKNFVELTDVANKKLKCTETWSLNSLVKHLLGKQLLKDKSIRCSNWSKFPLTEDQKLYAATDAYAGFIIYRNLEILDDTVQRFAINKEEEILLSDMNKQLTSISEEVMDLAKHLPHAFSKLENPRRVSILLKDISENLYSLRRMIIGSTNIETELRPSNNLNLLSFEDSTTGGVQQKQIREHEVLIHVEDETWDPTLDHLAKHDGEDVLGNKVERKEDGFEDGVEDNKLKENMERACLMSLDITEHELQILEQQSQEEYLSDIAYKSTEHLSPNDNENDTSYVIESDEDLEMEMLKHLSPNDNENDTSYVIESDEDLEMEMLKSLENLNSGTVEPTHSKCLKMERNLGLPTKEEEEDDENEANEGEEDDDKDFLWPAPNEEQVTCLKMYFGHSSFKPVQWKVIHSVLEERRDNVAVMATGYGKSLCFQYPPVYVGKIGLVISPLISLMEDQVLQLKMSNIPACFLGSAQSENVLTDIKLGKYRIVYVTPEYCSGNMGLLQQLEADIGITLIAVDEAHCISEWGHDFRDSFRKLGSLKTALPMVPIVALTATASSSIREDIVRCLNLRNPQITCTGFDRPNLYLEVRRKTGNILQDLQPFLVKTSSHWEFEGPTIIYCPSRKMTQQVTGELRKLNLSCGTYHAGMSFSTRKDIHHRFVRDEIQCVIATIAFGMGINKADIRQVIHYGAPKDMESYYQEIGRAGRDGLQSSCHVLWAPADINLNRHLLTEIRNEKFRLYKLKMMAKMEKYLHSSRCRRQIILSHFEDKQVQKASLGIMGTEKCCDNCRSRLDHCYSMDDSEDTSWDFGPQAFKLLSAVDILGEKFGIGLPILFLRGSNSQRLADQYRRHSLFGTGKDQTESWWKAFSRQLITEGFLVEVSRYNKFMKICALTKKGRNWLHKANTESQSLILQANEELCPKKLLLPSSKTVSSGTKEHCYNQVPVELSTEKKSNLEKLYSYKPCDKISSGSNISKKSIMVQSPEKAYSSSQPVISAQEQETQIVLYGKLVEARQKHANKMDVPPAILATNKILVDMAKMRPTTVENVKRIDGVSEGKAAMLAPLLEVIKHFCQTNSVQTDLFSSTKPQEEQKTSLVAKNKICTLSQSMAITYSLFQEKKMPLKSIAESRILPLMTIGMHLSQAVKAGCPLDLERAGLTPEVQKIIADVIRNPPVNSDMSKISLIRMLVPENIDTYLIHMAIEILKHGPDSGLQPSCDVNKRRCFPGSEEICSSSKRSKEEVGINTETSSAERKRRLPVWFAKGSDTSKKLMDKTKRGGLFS
Assay: WRN helicase activity assay (unwinding of BHQ2/Cy5-labelled double-stranded DNA, fluorescence)
Assay type: biochemical
Conditions: Table 3, 30 min pre-incubation, 30 min reaction
Give just the number in nM; leave the unit off.

>>> print(df.to_string())
                              smiles_record  attribute_measured  recorded_measurement
0  CCc1c(N2CCN(C(=O)c3ncnc(C)c3O)CC2)c(=O)c2nn(C3=CCOCC3)nc2n1CC(=O)Nc1cc(F)c(Cl)cc1Cl                IC50                  72.1
1  CCc1c(N2CCN(C(=O)c3ncnc(C)c3O)CC2)c(=O)c2nn(C3=CCOCC3)nc2n1CC(=O)Nc1cc(F)c(C(F)(F)F)cc1Cl                IC50                  70.2

Consider the record given below.
Could you tell me which IC50 is on file for "CCc1c(N2CCN(C(=O)c3ncnc(C)c3O)CC2)c(=O)c2nn(C3=CCOCC3)nc2n1CC(=O)Nc1ccc(C(F)(F)F)cc1Cl" ? 60.9

* * *

Target: WRN enzyme (Homo sapiens, UniProt Q14191)
Construct: host or cells: eukaryotic cells (not further specified)
Experiment: biochemical
pIC50: −log10 of the molar value.
Please mark satisfied if the recorded pIC50 is equal to or greater than 7, and not satisfied if it falls below.

Use these answered entries as a reference point.
>>> df
                              smiles_record      label
0  CCc1c(N2CCN(C(=O)c3ncnc(C)c3O)CC2)c(=O)c2nn(C3=CCOCC3)nc2n1CC(=O)Nc1cc(F)c(C(F)(F)F)cc1Cl  satisfied
1  CCc1c(N2CCN(C(=O)c3ncnc(C)c3O)CC2)c(=O)c2nn(C3=CCOCC3)nc2n1CC(=O)Nc1cc(F)c(Cl)cc1Cl  satisfied

Here's the next entry for you.
Decide: pIC50 of "CCc1c(C2=CCN(C(=O)c3ncnc(C)c3O)CC2)c(=O)c2cn(C3=CCOCC3)nc2n1CC(=O)Nc1ccc(C(F)(F)F)cc1Cl" >= 7? not satisfied

* * *

Biological target: WRN enzyme (Homo sapiens)
Construct: host or cells: eukaryotic cells (not further specified)
Test: biochemical
Measured IC50 by item
State the answer as a number, implicitly in nM.

Look over these answered cases.
                              smiles_record  attribute_measured  recorded_measurement
0  CCc1c(N2CCN(C(=O)c3ncnc(C)c3O)CC2)c(=O)c2nn(C3=CCOCC3)nc2n1CC(=O)Nc1cc(F)c(C(F)(F)F)cc1F                IC50                  41.9
1  CCc1c(N2CCN(C(=O)c3ncncc3O)CC2)c(=O)c2nn(C3=CCOCC3)nc2n1CC(=O)Nc1ccc(C(F)(F)F)cc1Cl                IC50                  64.3
2  CCc1c(N2CCN(C(=O)c3ncccc3O)CC2)c(=O)c2nn(C3=CCOCC3)nc2n1CC(=O)Nc1cc(F)c(C(F)(F)F)cc1Cl                IC50                  44.3
3  CCc1c(N2CCN(C(=O)c3ncnc(C)c3O)CC2)c(=O)c2nn(C3=CCOCC3)nc2n1CC(=O)Nc1ccc(C(F)(F)F)cc1C                IC50                   118
4  CCc1c(N2CCN(C(=O)c3ncccc3O)CC2)c(=O)c2nn(C3=CCOCC3)nc2n1CC(=O)Nc1ccc(C(F)(F)F)cc1Cl                IC50                  35.5
5  CCc1c(N2CCN(C(=O)c3ncnc(C)c3O)CC2)c(=O)c2nn(C3=CCOCC3)nc2n1CC(=O)Nc1ncc(C(F)(F)F)cc1Cl                IC50                   104
6  CCc1c(N2CCN(C(=O)c3ncnc(C)c3O)CC2)c(=O)c2nn(C3=CCOCC3)nc2n1CC(=O)Nc1cc(Cl)c(C(F)(F)F)cc1C                IC50                  30.8
7  CCc1c(N2CCN(C(=O)c3ncnc(C)c3O)CC2)c(=O)c2nn(C3=CCOCC3)nc2n1CC(=O)Nc1ccc2c(c1)CC2                IC50                  42.6

Kindly review the next molecule as well.
What value of IC50 has been recorded for this entry: "CCc1c(N2CCN(C(=O)c3ncnc(C)c3O)CC2)c(=O)c2nn(C3=CCOCC3)nc2n1CC(=O)Nc1ccc2c(c1)CCC2" 34.7

* * *

Recorded IC50 values for a group of molecules are listed next.
Test system: SW620 cells
Experiment: Cell proliferation assay (CellTiter-Glo), SW620
Assay type: cell-based
Settings: Homo sapiens, 120 h, SW-620 (MSS), 5 days incubation

For the molecule shown here, "CCc1c(N2CCN(C(=O)c3ncnc(C)c3O)CC2)c(=O)c2nn(C3=CCOCC3)cc2n1CC(=O)Nc1ccc(C(F)(F)F)cc1Cl" , give the reported IC50. > 25000 nM

Recorded IC50 for "CCc1c(N2CCN(C(=O)c3ncccc3O)CC2)c(=O)c2nn(C3=CCOCC3)cc2n1CC(=O)Nc1ccc(C(F)(F)F)cc1Cl" , please? > 25000 nM

Entry under review: "CCc1c(N2CCN(C(=O)c3ncnc(C)c3O)CC2)c(=O)c2nn(C3=CCOCC3)nc2n1CC(=O)Nc1ccc(C(F)(F)F)cc1C" . Reported IC50? > 25000 nM

Look up IC50: "CCc1c(N2CCN(C(=O)c3ncnc(C)c3O)CC2)c(=O)c2nn(C3=CCOCC3)nc2n1CC(=O)Nc1ncc(C(F)(F)F)cc1Cl" > 25000 nM

Which IC50 is listed for "CCc1c(C2=CCN(C(=O)c3ncnc(C)c3O)CC2)c(=O)c2cn(C3=CCOCC3)nc2n1CC(=O)Nc1ccc(C(F)(F)F)cc1Cl" ? > 25000 nM

I am curious: what IC50 value has been reported for "CCc1c(N2CCN(C(=O)c3ncccc3O)CC2)c(=O)c2nn(C3=CCOCC3)nc2n1CC(=O)Nc1cc(F)c(C(F)(F)F)cc1Cl" ? 20700 nM

* * *

Biological target: WRN enzyme (Homo sapiens, UniProt Q14191)
Construct: host or cells: eukaryotic cells (not further specified)
Assay: biochemical
Procedure: The WRN enzyme used in the experiment has a His-TEV tag at the N-terminus and is expressed in eukaryotic cells with a purity of 90%. The assay kit (ADP-Glo™ Kinase Assay) was purchased from Promega (Cat. No. V9101), aliquoted, and then stored in the refrigerator at -40°C. This kit could quantitatively detect the amount of ADP generated in the reaction. WRN hydrolyzed ATP to produce ADP. […] The enzyme activity of WRN can be reflected by detecting the chemiluminescence signal using a microplate reader. […]
Below is a list of entries, each paired with its recorded pIC50 value.
When answering, recall that pIC50 equals minus log10 of the concentration in mol/L, and write that number alone.

Use these answered entries as a reference point.
In [3]: df
Out[3]:
                              smiles_record  recorded_measurement
0  CCc1c(N2CCN(C(=O)c3ncccc3O)CC2)c(=O)c2nn(C3=CCOCC3)cc2n1CC(=O)Nc1ccc(C(F)(F)F)cc1Cl                  6.87
1  CCc1c(N2CCN(C(=O)c3ncnc(C)c3O)CC2)c(=O)c2nn(C3=CCOCC3)cc2n1CC(=O)Nc1ccc(S(F)(F)(F)(F)F)cc1                  7.07

Next up:
Looking for the measured pIC50 of "CCc1c(N2CCN(C(=O)c3ncnc(C)c3O)CC2)c(=O)c2nn(C3=CCOCC3)nc2n1CC(=O)Nc1ccc(C(F)(F)F)cc1Cl" , can you help? 7.05
